IC50 listing for selected compounds.
Target: UniProtKB P35354
Sequence (P35354 18-604): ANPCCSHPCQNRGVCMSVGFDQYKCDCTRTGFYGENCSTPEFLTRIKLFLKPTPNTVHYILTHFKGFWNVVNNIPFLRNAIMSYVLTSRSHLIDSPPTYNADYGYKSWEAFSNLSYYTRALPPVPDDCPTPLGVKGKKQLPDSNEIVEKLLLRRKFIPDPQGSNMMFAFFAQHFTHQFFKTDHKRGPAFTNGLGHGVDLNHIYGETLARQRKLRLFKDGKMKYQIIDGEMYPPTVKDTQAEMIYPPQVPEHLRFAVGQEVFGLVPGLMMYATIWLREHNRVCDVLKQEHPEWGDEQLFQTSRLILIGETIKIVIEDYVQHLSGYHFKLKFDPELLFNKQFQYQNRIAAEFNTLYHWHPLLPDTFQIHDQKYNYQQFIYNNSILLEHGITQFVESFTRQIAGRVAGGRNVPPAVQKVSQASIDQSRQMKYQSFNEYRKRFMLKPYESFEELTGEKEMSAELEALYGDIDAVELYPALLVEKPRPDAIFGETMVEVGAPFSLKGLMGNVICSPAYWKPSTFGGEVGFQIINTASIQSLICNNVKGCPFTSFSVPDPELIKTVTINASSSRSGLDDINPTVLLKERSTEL
Assay: Inhibition of cyclooxygenase-2 (COX inhibitor screening assay kit, PGF2α ELISA)
Format: biochemical

COc1ccc(-n2nc(C(=O)N3CCN(C)CC3)cc2-c2ccccn2)nn1 [Compound (1a)] :: > 50 µM

# context switch: different compound, same IC50
Req: Supply measured IC50 of COc1ccc(-n2nc(C(=O)N3CCN(C)CC3)cc2-c2ccccn2)nn1.Cl [Compound (1b), Monohydrochloride] in your reply.
Resp: > 100 µM

###

System: human platelet rich plasma (PRP), aggregation induced by collagen
Test: Suppression of collagen-induced platelet aggregation in human PRP
Type: cell-based
Conditions: Homo sapiens, Platelet
result-type: IC50 (µM)
Field format: number, assumed µM, no unit text.

Req: Tell me its IC50 on human platelet rich plasma (PRP), aggregation induced by collagen: COc1ccc(-n2nc(C(=O)N3CCN(C)CC3)cc2-c2ccccn2)nn1.Cl [Compound (1b), Monohydrochloride]
Resp: 0.86

###

Target: COX-1 (Ovis aries, UniProt P05979)
Sequence (P05979 25-600): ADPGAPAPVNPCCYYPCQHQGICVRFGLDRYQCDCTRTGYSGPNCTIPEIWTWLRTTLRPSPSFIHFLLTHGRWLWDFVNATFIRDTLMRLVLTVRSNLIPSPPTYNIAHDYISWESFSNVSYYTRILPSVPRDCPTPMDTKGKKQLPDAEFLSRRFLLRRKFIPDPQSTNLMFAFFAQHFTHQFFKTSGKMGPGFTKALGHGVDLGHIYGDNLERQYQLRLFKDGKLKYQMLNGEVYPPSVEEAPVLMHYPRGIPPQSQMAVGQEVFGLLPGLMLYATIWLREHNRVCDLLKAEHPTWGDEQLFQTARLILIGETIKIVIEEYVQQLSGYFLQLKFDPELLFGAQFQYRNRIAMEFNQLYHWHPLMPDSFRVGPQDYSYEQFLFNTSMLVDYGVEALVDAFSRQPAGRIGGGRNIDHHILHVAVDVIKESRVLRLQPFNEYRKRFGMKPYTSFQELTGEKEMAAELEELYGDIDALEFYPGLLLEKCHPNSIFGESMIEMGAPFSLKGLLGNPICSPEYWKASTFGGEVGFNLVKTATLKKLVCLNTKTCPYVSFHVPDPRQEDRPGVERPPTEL
Assay: Inhibition of cyclooxygenase-1 (COX inhibitor screening assay kit, PGF2α ELISA)
Type: biochemical
result-type: IC50 (µM)
Write the answer as a number in µM, unit excluded.

Req: Provide one value: measured IC50 of `COc1ccc(-n2nc(C(=O)N3CCN(C)CC3)cc2-c2ccccn2)nn1`
Resp: 97
